Data credit: patent US9771358B2

// values below are reported half-life
# assayProtocol: PK of test compounds in beagle
# Format: in vivo, beagle dog
# experimentalContext: dog, plasma, iv, 1 mg/kg
Just the number please, in h, no unit attached.

Retrieve half-life measured for "COC(=O)C1=C(CN2CCO[C@H](CCC(=O)O)C2)NC(c2nccs2)=N[C@H]1c1ccc(Cl)cc1Cl" and print it.
5.08

Fill in reported half-life for this entry: "CCOC(=O)C1=C(CN2CCO[C@H](CCC(=O)O)C2)NC(c2nccs2)=N[C@H]1c1ccc(Cl)cc1Cl"
6.2

State, in one line, measured half-life of "CCOC(=O)C1=C(CN2CCO[C@H](CCC(=O)O)C2)NC(c2nccs2)=N[C@H]1c1ccc(F)cc1Br"
5.71
